Molecular target: fusion glycoprotein (F) of the MPV used in the neutralization of Table 34 (metapneumovirus)
Experiment: cell-based or functional assay
quantity measured: IC50 (ng/mL) in neutralization against MPV
Give the value in ng/mL but do not write ng/mL after it.

# count of solved cases: 2
[[record]]
binder = "MPK104-v1.3-rIgG1m17,1-LS (antibody, V domains shown) VH: QVQLVESGGGLVKPGGSLRLSCAASGFTIDGYGMNWVRQAPGKGLEWVSSISASSNYIYYADSMKGRFTISRDNGKNSLYLQMHSLRVEDTGVYYCARAPLEPPYFDLWGRGTLVTVSS VL: QSVLTQPPSVSGAPGQRVTISCSGGSSNIGAGYDVHWYQQVPGKGPKVLIYGNTNRPSGVPDRFSGSNFGASASLAITGLQAEDEADYFCQSYDRRLGGPVFGGGTKLTVL"
number = 1.16

[[record]]
binder = "MPH12-rIgG1-LS (antibody, V domains shown) VH: QVQLVESGGGLVKPGGSLRLSCVASGFTFSGFYMKWIRQAPGKGLEWVSSISASGSYTNYADSVEGRFTVSRDNAKNSLFLLMSSLRAEDTAVYYCARGDSYCGASACHGEFFHKWGQGTLVTVSS VL: QSVLTQPPSVSGAPGQRVTISCTGSDSNIGADFDVHWYQQLPGTAPKLLIYGNINRPSGVPDRFSGSRSGTSAFLAITRLQAEDEADYYCQSYDRSLHYVFGAGTKVTVL"
number = 5.26


Please turn your attention to the following entry.
Request: Query IC50 (ng/mL) in neutralization against MPV for MPK104-v1.1-rIgG1m17,1-LS (antibody, V domains shown) VH: QVQLVESGGGLVKPGGSLRLSCAASGFTIDGYGMNWVRQAPGKGLEWVSSISASSNYIYYADSMKGRFTISRDNGKNSLYLQMHSLRVEDTGVYYCARAPLEPPYFDLWGRGTLVTVSS VL: QSVLTQPPSVSGAPGQRVTISCSGGSSNIGAGYDVHWYQQVPGKGPKVLIYGNNNRPSGVPDRFSGSNFGASASLAITGLQADDEADYFCQSYDRRLGGPVFGGGTKLTVL
Response: 1.36

Reference source: patent US20260028391A1
